Origin of measurements: patent US9765092B2

Below, each of the compounds is paired with its reported IC50 value.
- Test System: human TPH1 (Homo sapiens (Human))
- Assay Overview: Biochemical in vitro assay using fluorescence readout (TPH1 inhibition)
- Run Conditions: human TPH1, fluorescence readout
Number only, in nM; omit the unit.

Observe how each entry below is paired with its result.
{"Compound": "CCc1ncccc1OCC(=O)N1CCc2nc3sccn3c2C1c1cnn(-c2ccccc2)c1 (stereo not drawn)", "Assay Result": 123}
{"Compound": "CNC(=O)c1cc(F)c(C2c3c(nc4sc(C)nn34)CCN2C(=O)COc2ccc(C(F)(F)F)cc2Cl)s1 (stereo not drawn)", "Assay Result": 10}

Now for a further compound.
### Prompt Which measured IC50 value corresponds to Cc1cnc(C2c3c(nc4sc(C)nn34)CCN2C(=O)COc2ccc(C(=O)N(C)C3CC3)nc2Cl)c(F)c1 (stereo not drawn) ?
### Response 32

###

- Test System: human TPH1 (Homo sapiens (Human), UniProt P17752)
- Sequence (P17752 whole entry): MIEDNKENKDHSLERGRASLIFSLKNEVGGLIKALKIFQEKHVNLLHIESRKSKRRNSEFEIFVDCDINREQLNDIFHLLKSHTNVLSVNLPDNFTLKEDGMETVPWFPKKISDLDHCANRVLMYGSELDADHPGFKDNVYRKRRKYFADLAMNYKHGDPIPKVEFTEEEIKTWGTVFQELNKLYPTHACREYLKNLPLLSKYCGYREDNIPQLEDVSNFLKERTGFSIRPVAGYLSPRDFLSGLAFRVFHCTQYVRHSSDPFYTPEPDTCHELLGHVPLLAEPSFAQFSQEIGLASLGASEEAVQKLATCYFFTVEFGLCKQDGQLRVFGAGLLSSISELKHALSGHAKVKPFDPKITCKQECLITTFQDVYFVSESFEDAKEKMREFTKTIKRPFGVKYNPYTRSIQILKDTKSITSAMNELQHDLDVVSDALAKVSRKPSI
- Assay Overview: Biochemical in vitro assay using fluorescence readout (TPH1 inhibition)
- Run Conditions: human TPH1, fluorescence readout
Measured Endpoint: pIC50
Formally, pIC50 is defined as -log10 of the concentration c, with c in mol/L.

{"Molecule": "O=C(COc1ccc(N2CCOCC2)cc1Cl)N1CC=C2N=C3SC=CN3C2[C@H]1c1ccc(Cl)cc1F (stereo partly drawn)", "Assay Result": 8.40}
{"Molecule": "COC1(c2cnc(C3c4c(nc5sc(C)nn45)CCN3C(=O)COc3ccc(N4CCOCC4)nc3Cl)s2)COC1 (stereo not drawn)", "Assay Result": 6.68}
{"Molecule": "CNS(=O)(=O)c1ccc(OCC(=O)N2CCc3nc4sc(C)nn4c3C2c2ccc(Cl)cc2F)c(Cl)n1 (stereo not drawn)", "Assay Result": 7.44}
{"Molecule": "COC(=O)c1csc(C2c3c(nc4sc(C)nn34)CCN2C(=O)COc2ccc(N3CCOCC3)nc2Cl)c1 (stereo not drawn)", "Assay Result": 8.30}
{"Molecule": "Cc1nn2c3c(nc2s1)CCN(C(=O)COc1ccc(S(C)(=O)=O)nc1Cl)C3c1ccc(Cl)cc1F (stereo not drawn)", "Assay Result": 7.57}
{"Molecule": "Cc1nn2c3c(nc2s1)CCN(C(=O)COc1ccc(N2CC(F)(F)C2)nc1Cl)C3c1sccc1F (stereo not drawn)", "Assay Result": 8.22}
{"Molecule": "Cc1nn2c3c(nc2s1)CCN(C(=O)COc1ccc(C(F)(F)F)cc1Cl)C3c1sccc1F (stereo not drawn)", "Assay Result": 8.05}
{"Molecule": "CS(=O)(=O)Nc1ccc(OCC(=O)N2CCc3nc4sccn4c3C2c2ccc(Cl)cc2F)c(Cl)n1 (stereo not drawn)", "Assay Result": 8.52}
{"Molecule": "CCc1ncccc1OCC(=O)N1CCc2nc3sccn3c2C1c1ccc(Cl)cc1F (stereo not drawn)", "Assay Result": 8.22}
{"Molecule": "Cc1nn2c3c(nc2s1)CCN(C(=O)COc1ccc(NS(C)(=O)=O)nc1Cl)C3c1ccc(OC(F)(F)F)cc1F (stereo not drawn)", "Assay Result": 7.89}

### Prompt What value of pIC50 has been recorded for this entry: CCc1nc(NS(C)(=O)=O)ccc1OCC(=O)N1CCc2nc3sc(C(F)F)nn3c2C1c1ccc(Cl)cc1F (stereo not drawn)
### Response 8.00

### Prompt Same thing, different molecule: Cc1nn2c3c(nc2s1)CCN(C(=O)COc1ccc(N2CCOCC2)nc1Cl)C3c1scnc1C (stereo not drawn)
### Response 8.70

### Prompt Now the same for Cc1nn2c3c(nc2s1)CCN(C(=O)COc1ccnc2c(C)c(Cl)ccc12)C3c1ccc(Cl)cc1F (stereo not drawn)
### Response 6.59

### Prompt Also CN1CCN(c2ccc(OCC(=O)N3CCc4nc5sc(C6CC6)nn5c4C3c3ccc(Cl)cc3F)c(Cl)n2)CC1 (stereo not drawn) ?
### Response 7.92

### Prompt Moving on to Cc1ccc(OCC(=O)N2CCc3nc4sc(C)nn4c3C2c2ccc(C3CC3)cc2F)c(C)n1 (stereo not drawn)
### Response 7.89

### Prompt What do you have for Cc1nn2c3c(nc2s1)CCN(C(=O)COc1ccc(C(=O)N(C)C)nc1Cl)C3c1cnc(C(=O)N(C)C)s1 (stereo not drawn) ?
### Response 8.05

### Prompt Cc1cc(Cl)ccc1OCC(=O)N1CCc2nc3sccn3c2C1c1c(C)noc1C (stereo not drawn) , same question.
### Response 7.57

### Prompt Also Cc1nn2c3c(nc2s1)CCN(C(=O)COc1ccc(NS(C)(=O)=O)nc1Cl)C3c1ccc(C2CC2)cc1F (stereo not drawn) , if possible.
### Response 7.92
